- target_or_system: Human BACE-1 (Homo sapiens, UniProt P56817)
- Sequence (P56817 46-457 limits assumed): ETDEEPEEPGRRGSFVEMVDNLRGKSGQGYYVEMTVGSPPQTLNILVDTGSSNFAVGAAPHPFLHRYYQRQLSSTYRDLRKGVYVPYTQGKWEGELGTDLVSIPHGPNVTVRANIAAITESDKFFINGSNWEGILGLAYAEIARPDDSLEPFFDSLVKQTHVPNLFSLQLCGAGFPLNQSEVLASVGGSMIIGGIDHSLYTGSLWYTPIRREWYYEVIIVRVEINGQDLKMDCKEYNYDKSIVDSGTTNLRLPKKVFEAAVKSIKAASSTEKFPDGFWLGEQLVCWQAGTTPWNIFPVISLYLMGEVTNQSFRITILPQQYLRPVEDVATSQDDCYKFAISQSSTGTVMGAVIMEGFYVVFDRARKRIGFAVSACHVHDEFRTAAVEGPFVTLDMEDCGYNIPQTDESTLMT
- run_description: Test 1: Inhibition of Human BACE-1
- Format: biochemical
- setup_conditions: Test 1; recombinant BACE-1 (extracellular domain), acetate buffer pH 4.5, 1 hour with test compound at room temperature, fluorescence-quenched peptide substrate; read-out: Bace IC50
Counter-ions that a name gives are not always drawn.
test_readout: IC50 (µM)
The answer is to be given in µM; state only the numeric part.

Name the reported IC50 value associated with the compound Cc1cnc(C(=O)Nc2cccc(C3(C)COCC(N)=N3)c2)cn1 (stereo not shown)
4.7

Same question for CCn1ccnc1C(=O)Nc1ccc(F)c([C@]2(C(F)F)COCC(N)=N2)c1 please.
1.2

Same question for Cc1cc(C#N)cnc1C(=O)Nc1ccc(F)c([C@]2(C(F)F)COCC(N)=N2)c1 please.
0.017

Same question for NC1=NC(c2cc(NC(=O)c3ccc(Br)cn3)ccc2F)(C(F)(F)F)CCOC1 (stereo not shown) [Example 99, hydrochloride] please.
0.14

Same question for NC1=N[C@@](c2cc(NC(=O)c3ccc(C(F)F)cn3)ccc2F)(C(F)F)COC1 [Example 132, hydrochloride] please.
0.087

Same question for COCCOc1ccc(C(=O)Nc2ccc(F)c([C@]3(C(F)F)COCC(N)=N3)c2)nc1 please.
0.34

Same question for Cc1cc(OC(F)F)cnc1C(=O)Nc1ccc(F)c([C@]2(C(F)F)COCC(N)=N2)c1 please.
0.018

Same question for NC1=N[C@@](c2cc(NC(=O)c3ccc(Cl)cn3)ccc2F)(C(F)F)COC1 [Example 137, hydrochloride] please.
0.03

Same question for CC1(C)OC[C@](c2cc(NC(=O)c3ccc(C#N)cn3)ccc2F)(C(F)F)N=C1N please.
0.12

Same question for C[C@@]1(c2cc(Br)cc(NC(=O)c3ccc(C#N)cn3)c2)COCC(N)=N1 please.
0.38

Same question for NC1=N[C@@](c2cc(NC(=O)c3ncc(Br)cc3Cl)ccc2F)(C(F)F)COC1 [Example 117, hydrochloride] please.
0.018

Same question for CC(C)Oc1cnc(C(=O)Nc2ccc(F)c([C@]3(C(F)F)COCC(N)=N3)c2)cn1 please.
0.34

Same question for CCOc1cnc(C(=O)Nc2ccc(F)c([C@]3(C(F)F)COCC(N)=N3)c2)cn1 please.
0.049

Same question for NC1=NC(c2cccc(NC(=O)c3ccc(Br)cn3)c2)(C(F)F)COC1 (stereo not shown) [Example 34, hydrochloride] please.
0.56

Same question for NC1=NC(c2cc(NC(=O)c3ccc(Br)cn3)c(F)cc2F)(C(F)F)COC1 (stereo not shown) [Example 81, hydrochloride] please.
1.1

Same question for CC1(c2cccc(NC(=O)c3cc(Br)co3)c2)COCC(N)=N1 (stereo not shown) please.
0.35

* * *

- target_or_system: Human BACE-1 (Homo sapiens, UniProt P56817)
- run_description: Test 1: Inhibition of Human BACE-1
- Type: biochemical
- setup_conditions: Test 1; recombinant BACE-1 (extracellular domain), acetate buffer pH 4.5, 1 hour with test compound at room temperature, fluorescence-quenched peptide substrate; read-out: Bace IC50
pIC50: −log10 of the molar value. Counter-ions that a name gives are not always drawn.
Parameter threshold = 7. Response is true (1) when pIC50 meets or exceeds it, else false (0).

Reported pIC50 reaches at least 7 for COc1cc(Br)cnc1C(=O)Nc1cc(C2(C(F)F)COCC(N)=N2)c(F)cc1F (stereo not shown) [Example 83, hydrochloride] ?
false (0)

Same question for NC1=NC(c2cccc(NC(=O)c3cc(Br)co3)c2)(C(F)F)COC1 (stereo not shown) [Example 102, hydrochloride] please.
false (0)

Same question for CC#CCOc1cnc(C(=O)Nc2ccc(F)c([C@]3(C(F)F)COCC(N)=N3)c2)cn1 [Example 164] please.
true (1)

Same question for CC1(c2cc(NC(=O)c3ccc(Br)cn3)ccc2F)N=C(N)COCC1(F)F (stereo not shown) [Example 101] please.
true (1)

Same question for Cc1nc(C(=O)Nc2ccc(F)c([C@]3(C(F)F)COCC(N)=N3)c2)cs1 [Example 148, hydrochloride] please.
false (0)

Same question for Cn1ccc(C(=O)Nc2ccc(F)c([C@]3(C(F)F)COCC(N)=N3)c2)n1 [Example 150, hydrochloride] please.
false (0)

Same question for NC1=N[C@@](c2cc(NC(=O)c3cnc(Cl)cn3)ccc2F)(C(F)F)COC1 [Example 141] please.
true (1)

Same question for CC1(c2cccc(NC(=O)c3ncccc3F)c2)COCC(N)=N1 (stereo not shown) [Example 9] please.
false (0)

Same question for COc1cnc(C(=O)Nc2ccc(F)c([C@]3(C(F)F)COCC(N)=N3)c2)c(N)n1 [Example 175] please.
true (1)

Same question for COc1ccc(C(=O)Nc2ccc(F)c([C@]3(C(F)F)COCC(N)=N3)c2)nc1 [Example 49] please.
true (1)

Same question for NC1=N[C@@](c2cc(NC(=O)c3ncc(Cl)cc3Cl)ccc2F)(C(F)F)COC1 [Example 111, hydrochloride] please.
true (1)

Same question for Cc1cc(Cl)cnc1C(=O)Nc1ccc(F)c([C@]2(C(F)F)COCC(N)=N2)c1 [Example 44] please.
true (1)

Same question for NC1=N[C@@](c2cc(NC(=O)c3cc4ccccn4n3)ccc2F)(C(F)F)COC1 [Example 126, hydrochloride] please.
false (0)

Same question for NC1=NC(CF)(c2cc(Cl)cc(NC(=O)c3ccc(Br)cn3)c2)COC1 (stereo not shown) [Example 32] please.
false (0)

Same question for NC1=N[C@@](c2cc(NC(=O)c3ncc(Cl)cc3N)ccc2F)(C(F)F)COC1 [Example 160] please.
true (1)
